# Tested on: Human papillomavirus type 1a protein E7 (residues 44-93)
# Test: HPV1a E7 fragment binders on microarrays, primary screen, biochemical, small-molecule microarray, residues 44-93, 635 nm fluorescence (AID 1108);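 further: E7 fragment applied at 1 µg/mL in TBST for 1 h at 4 C; score combines spot fluorescence with its signal to noise ratio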
# Condition Description: small-molecule microarray binding, fluorescence 635 nm; higher = more signal
Quantity Measured: composite z-score

>  <Compound>
Cc1ccc(S[C@]2(C(=O)NC3CC3)CC(=O)N(Cc3cc(C(F)(F)F)cc(C(F)(F)F)c3)[C@@H]2c2ccc(CO)cc2I)cc1

>  <Measurement Target>
Human papillomavirus type 1a protein E7 (residues 44-93)

>  <Val>
0.769

$$$$
>  <Compound>
CCCC[C@@H](O)C1=C(COC)Cn2c(=O)n(-c3ccccc3)c(=O)n2[C@H]1CO

>  <Measurement Target>
Human papillomavirus type 1a protein E7 (residues 44-93)

>  <Val>
-0.877

$$$$
>  <Compound>
CN(C)CCCC[C@@H]1NC(=O)[C@H]2C[C@@H](C(=O)O)[C@@H](c3cccc(OCCO)c3)N2C1=O

>  <Measurement Target>
Human papillomavirus type 1a protein E7 (residues 44-93)

>  <Val>
-0.226

$$$$
>  <Compound>
COc1cc(OC)c(C(O)C2C=CC3C(=O)N(c4ccccc4)C(=O)C3N2Nc2ccccc2F)cc1Br (centres undefined)

>  <Measurement Target>
Human papillomavirus type 1a protein E7 (residues 44-93)

>  <Val>
1.31

$$$$
